Entries and their PBM E-score values follow.
# assayed_system: Pdr3 (UniProt P33200)
# Sequence: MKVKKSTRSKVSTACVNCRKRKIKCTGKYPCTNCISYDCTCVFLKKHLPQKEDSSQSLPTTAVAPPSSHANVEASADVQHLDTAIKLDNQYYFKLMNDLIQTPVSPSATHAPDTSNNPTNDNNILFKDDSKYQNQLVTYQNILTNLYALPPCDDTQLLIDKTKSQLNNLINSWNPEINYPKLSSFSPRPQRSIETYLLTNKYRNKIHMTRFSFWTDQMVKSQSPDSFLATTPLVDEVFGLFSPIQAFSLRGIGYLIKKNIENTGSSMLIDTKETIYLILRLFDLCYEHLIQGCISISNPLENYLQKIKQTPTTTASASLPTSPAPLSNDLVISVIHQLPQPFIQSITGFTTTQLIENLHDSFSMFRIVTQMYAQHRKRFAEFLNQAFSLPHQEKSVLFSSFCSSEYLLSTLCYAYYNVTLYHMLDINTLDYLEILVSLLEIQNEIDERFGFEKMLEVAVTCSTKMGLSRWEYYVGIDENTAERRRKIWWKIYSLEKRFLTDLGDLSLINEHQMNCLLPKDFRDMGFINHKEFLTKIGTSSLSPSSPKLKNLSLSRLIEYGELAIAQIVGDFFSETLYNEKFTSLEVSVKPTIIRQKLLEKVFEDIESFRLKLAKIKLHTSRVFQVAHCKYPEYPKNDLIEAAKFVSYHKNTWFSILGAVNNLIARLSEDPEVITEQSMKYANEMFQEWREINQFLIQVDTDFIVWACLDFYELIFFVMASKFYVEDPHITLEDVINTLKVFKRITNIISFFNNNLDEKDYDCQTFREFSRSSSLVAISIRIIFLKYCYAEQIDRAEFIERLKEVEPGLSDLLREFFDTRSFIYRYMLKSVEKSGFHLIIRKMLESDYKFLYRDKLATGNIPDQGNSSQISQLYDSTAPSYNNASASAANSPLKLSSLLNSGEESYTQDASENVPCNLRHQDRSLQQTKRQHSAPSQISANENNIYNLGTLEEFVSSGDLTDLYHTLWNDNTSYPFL
# assay_overview: PBM E-score (8-mer binding enrichment) (E-score (-0.5 to 0.5)); higher = stronger / more preferred TF binding
# experimental_context: protein concentration: 200 nM; construct: GST-full length
In all, about 33,000 sequences were measured (“E-score (-0.5 to 0.5)”: median about -0.035, highest 2% from about 0.35 on). This excerpt belongs to a sample that is enriched for the highest values.
Write the value as a bare number.

1) CCTCGGCC 0.251
2) CACCTGCA -0.142
3) GGCGGGAA 0.198
4) ATACCGGA 0.303
5) CCTCGGCG 0.376

Continue with the sequence presented below.
Return reported PBM E-score; argument: GCTCGGAC
0.297

---

# assayed_system: Pdr3 (UniProt P33200)
# Sequence: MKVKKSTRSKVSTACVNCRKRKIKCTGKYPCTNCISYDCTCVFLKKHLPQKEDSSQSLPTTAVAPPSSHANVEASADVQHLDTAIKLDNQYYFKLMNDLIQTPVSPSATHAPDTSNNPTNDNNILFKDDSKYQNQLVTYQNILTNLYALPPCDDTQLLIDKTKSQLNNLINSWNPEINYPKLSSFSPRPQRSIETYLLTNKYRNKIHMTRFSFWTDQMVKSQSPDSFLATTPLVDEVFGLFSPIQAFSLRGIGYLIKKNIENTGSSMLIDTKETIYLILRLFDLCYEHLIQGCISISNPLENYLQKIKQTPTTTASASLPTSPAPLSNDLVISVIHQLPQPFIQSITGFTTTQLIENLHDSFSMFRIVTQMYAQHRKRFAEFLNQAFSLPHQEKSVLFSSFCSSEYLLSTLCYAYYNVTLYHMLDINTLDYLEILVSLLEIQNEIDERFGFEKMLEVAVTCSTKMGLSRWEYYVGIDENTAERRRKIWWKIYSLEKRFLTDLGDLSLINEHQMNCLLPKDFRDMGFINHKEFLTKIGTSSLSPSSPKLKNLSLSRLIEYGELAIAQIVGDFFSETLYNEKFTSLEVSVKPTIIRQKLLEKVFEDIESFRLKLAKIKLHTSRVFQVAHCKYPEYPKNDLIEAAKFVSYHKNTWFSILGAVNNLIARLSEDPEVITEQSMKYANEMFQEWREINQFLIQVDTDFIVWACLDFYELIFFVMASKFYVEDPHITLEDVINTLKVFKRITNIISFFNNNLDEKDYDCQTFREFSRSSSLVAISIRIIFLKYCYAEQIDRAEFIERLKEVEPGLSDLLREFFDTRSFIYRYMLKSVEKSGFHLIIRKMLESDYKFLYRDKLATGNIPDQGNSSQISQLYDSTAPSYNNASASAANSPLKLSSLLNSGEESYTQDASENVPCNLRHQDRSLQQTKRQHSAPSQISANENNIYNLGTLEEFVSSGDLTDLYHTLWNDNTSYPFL
# assay_overview: PBM E-score (8-mer binding enrichment) (E-score (-0.5 to 0.5)); higher = stronger / more preferred TF binding
# experimental_context: protein concentration: 200 nM; construct: GST-full length
In all, about 33,000 sequences were measured (“E-score (-0.5 to 0.5)”: median about -0.035, highest 2% from about 0.35 on). Many of the other results were omitted from the sample, so the highest values are more common in it than they were.
Entries and their PBM E-score values follow.
Write the value as a bare number.

Some sequences with recorded PBM E-score:
1. ATCCCCGG 0.386
2. ACAGTAAA -0.0539
3. CATGCCGG 0.36
4. CATGCCGC 0.345
5. CCCGGAGG 0.165

Return reported PBM E-score; argument: GAACCCCA
0.211

Also ACCGGAGA , if possible.
0.353

Also CCAATTAC , if possible.
-0.099

Also CCTGGAAG , if possible.
-0.203

Also ATCCCAGA , if possible.
-0.204

---

Entries and their PBM E-score values follow.
# assayed_system: Pdr3 (UniProt P33200)
# Sequence: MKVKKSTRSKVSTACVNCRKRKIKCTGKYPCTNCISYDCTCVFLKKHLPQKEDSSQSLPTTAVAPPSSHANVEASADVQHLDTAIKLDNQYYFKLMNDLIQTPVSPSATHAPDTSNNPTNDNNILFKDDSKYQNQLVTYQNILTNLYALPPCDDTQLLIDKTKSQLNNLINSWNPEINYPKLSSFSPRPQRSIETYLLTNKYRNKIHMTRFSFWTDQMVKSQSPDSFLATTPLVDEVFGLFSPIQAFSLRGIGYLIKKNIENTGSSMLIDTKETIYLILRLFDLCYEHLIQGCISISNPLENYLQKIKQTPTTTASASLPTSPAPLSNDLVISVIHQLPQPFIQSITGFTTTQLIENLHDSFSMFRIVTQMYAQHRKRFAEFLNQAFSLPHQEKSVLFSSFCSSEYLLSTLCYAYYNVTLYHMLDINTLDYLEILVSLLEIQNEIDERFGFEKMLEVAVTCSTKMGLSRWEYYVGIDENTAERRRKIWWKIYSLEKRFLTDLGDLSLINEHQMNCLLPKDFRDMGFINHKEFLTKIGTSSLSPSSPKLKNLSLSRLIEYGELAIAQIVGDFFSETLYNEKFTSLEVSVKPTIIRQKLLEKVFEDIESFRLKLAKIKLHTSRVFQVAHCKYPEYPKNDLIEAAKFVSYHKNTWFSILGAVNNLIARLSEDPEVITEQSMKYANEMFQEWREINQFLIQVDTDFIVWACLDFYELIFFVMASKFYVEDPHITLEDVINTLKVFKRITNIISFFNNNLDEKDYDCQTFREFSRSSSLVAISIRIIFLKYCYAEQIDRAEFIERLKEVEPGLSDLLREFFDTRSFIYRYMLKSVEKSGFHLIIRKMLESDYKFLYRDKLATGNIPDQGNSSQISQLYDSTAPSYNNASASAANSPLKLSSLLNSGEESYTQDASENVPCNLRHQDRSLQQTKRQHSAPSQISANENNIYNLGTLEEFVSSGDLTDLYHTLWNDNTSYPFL
# assay_overview: PBM E-score (8-mer binding enrichment) (E-score (-0.5 to 0.5)); higher = stronger / more preferred TF binding
# experimental_context: protein concentration: 200 nM; construct: GST-full length
The full ranking holds about 33,000 sequences; the median of “E-score (-0.5 to 0.5)” is about -0.035, and the highest 2% start at about 0.35. The sample holds the highest values, similar sequences and a random draw of the others, so the mix is not that of the screen.

1. GGCCGAAA 0.199
2. CGCCGGAA 0.45
3. CGTTCCCC 0.146
4. CTGGAACA 0.117
5. CATTTCTC 0.0391
6. AATTCCCG 0.298
7. TGGGAACA 0.0839
8. ACACGGCC 0.14
9. CGTTCCGA 0.455
10. CGTTCCTA -0.0878

Continue with the sequence presented below.
Return reported PBM E-score; argument: GGCCGGAA
0.431
